Each entry below carries its recorded z-score.
# Assay Notes: JC-1 mitochondrial signal, unstimulated myeloma cells – cell-based, JC-1 fluorescence, RPMI8226, 24 h, 100 nL compound, profiling panel (AID 1169); further: test concentration not given here
# Assay Conditions: JC-1 mitochondrial potential fluorescence, higher = more signal
Recorded Endpoint: z-score

>>> result_value("C=CCOC(=O)[C@@H]1[C@H]2C(=O)O[C@H](c3ccccc3)[C@H](c3ccccc3)N2[C@H](c2ccc(OCCOC(=O)[C@@H]3C[C@@H]4C(=O)N[C@@H](CCCCNC(C)=O)C(=O)N4[C@@H]3c3ccc(O)cc3)cc2)[C@@]12C(=O)Nc1ccc(I)cc12")
-0.482
>>> result_value("COc1ccccc1CN1C(=O)c2ccccc2[C@](Cc2ccccc2I)(C(=O)NCCN2CCOCC2)[C@@H]1c1ccc(CO)cc1")
-0.673
>>> result_value("N#Cc1ccc(NN2C(C(O)c3ccccc3)C=CC3C(=O)N(c4ccccc4)C(=O)C32)cc1 (stereo not drawn)")
0.0989

---

# Tested Target: E3 ubiquitin-protein ligase XIAP (Homo sapiens)
# Assay Notes: small molecules binding XIAP protein – biophysical, small-molecule microarray, fluorescence 635 nm, primary screen (AID 1181);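 further: score merges 667 nm emission and signal to noise over triplicate slides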
# Assay Conditions: higher = more signal
Each entry below carries its recorded composite z-score.
Recorded Endpoint: composite z-score

>>> result_value("COC(=O)[C@@]1(Cc2ccc(OC)cc2)[C@H]2c3cc(C(=O)N4CCCC4)n(CCc4ccc(O)c(OC)c4)c3C[C@H]2CN1C(=O)c1ccccc1")
0.659
>>> result_value("C[N+](C)(C)CCCC[C@@H]1NC(=O)[C@H]2C[C@@H](C(=O)NCCCCCCN)[C@@H](c3cccc(OCCO)c3)N2C1=O")
0.194
>>> result_value("[N-]=[N+]=NCc1ccccc1[C@H]1OC(c2ccc(OCCCO)cc2)=N[C@@]1(Cc1ccccc1N=[N+]=[N-])C(=O)N1CCCCC1")
-0.0062
>>> result_value("CN1C(=O)C2C=CC(C(O)c3cccc4ccccc34)N(NC(=O)OC(C)(C)C)C2C1=O (stereo not drawn)")
0.156
>>> result_value("COC(=O)[C@@]1(Cc2ccc(OC)cc2)[C@H]2c3cc(C(=O)N4CCCC4)n(CCF)c3C[C@H]2CN1C(=O)c1ccccc1")
-0.0471
>>> result_value("COC(=O)c1ccc(OC)c(/C=C\\CC(CCc2ccccc2)OC(=O)c2ccncc2)c1 (stereo not drawn)")
2.62
>>> result_value("O=C1c2ccccc2C(=O)C2CC([C@H]3Oc4ccccc4S(=O)(=O)N4CCC[C@@H]34)=CCC12 (stereo partly drawn)")
0.0374
>>> result_value("O=C(O)[C@@]1(Cc2ccccc2)COC(c2ccc(OCCCO)cc2)=N1")
0.33

---

Each entry below carries its recorded composite z-score.
# Tested on: Chordin-like protein 2 (CHRDL2)
# Assay Notes: compounds binding chordin-like 2 – biochemical, small-molecule microarray, 635 nm fluorescence, primary screen (AID 1126);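 further: printed compound slides probed with Chrdl2 protein at 4 µg/mL for 1 h at 4 C; score merges 667 nm emission intensity with signal to noise over three replicate slides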
# Assay Conditions: fluorescence 635 nm, higher = more signal
Recorded Endpoint: composite z-score

>>> result_value("COCC(=C=CC[C@@H](O)c1ccccc1OCCO)C[C@@H](O)c1ccccn1")
-0.0696
>>> result_value("C[N+](C)(C)CCCC[C@@H]1NC(=O)[C@@H]2C[C@H](C(=O)O)[C@H](c3cccc(OCCO)c3)N2C1=O")
0.451
>>> result_value("Cc1ccc(F)cc1S(=O)(=O)N[C@@H]1CCN(C(=O)c2ccc(OC(C)C)cc2)C1")
0.686
>>> result_value("O=C(C=C(CC(O)c1cccc(Cl)c1)OCCF)OCCF (centres undefined)")
-0.594
>>> result_value("N#Cc1ccc(NN2C(C(O)c3ccccc3)C=CC3C(=O)N(c4ccccc4)C(=O)C32)cc1 (centres undefined)")
-0.605
>>> result_value("CC(C)CN1C(=O)[C@@]2(Cc3ccccc31)c1ccccc1C(=O)N(Cc1ccccc1)[C@H]2c1ccc(CO)cc1")
-1.03
>>> result_value("O=C1C2C=CC(C(O)c3ccccn3)N(Nc3ccccc3)C2C(=O)N1c1ccccc1 (centres undefined)")
-0.493
>>> result_value("COc1ccccc1CN1C(=O)c2ccccc2[C@](Cc2ccccc2I)(C(=O)NCCN2CCOCC2)[C@@H]1c1ccc(CO)cc1")
0.617
>>> result_value("CC1(C)[C@@H]2CC(C(O)C3C=CC4C(=O)N(c5ccccc5)C(=O)C4N3Nc3ccccc3F)=C[C@@H]1C2 (some centres undefined)")
0.0364
>>> result_value("COC(=O)[C@@]1(Cc2ccc(F)cc2)[C@@H]2[C@@H](CC(=O)[C@H]2CC(=O)C(=O)N2CCCC2)CN1C(=O)c1ccccc1")
-0.232
>>> result_value("C=CCN1C(=O)[C@@]2(O[C@@H](CCO)[C@H]([Si](C)(C)c3ccc(OC)cc3)[C@H]2C)c2cc(NC(=O)[C@H](C)O)ccc21")
-0.0585
>>> result_value("O=C1c2ccccc2[C@](Cc2ccccc2I)(C(=O)NC2CC2)[C@H](c2ccc(CO)cc2)N1Cc1ccccc1Cl")
0.0424
>>> result_value("Cc1ccccc1C(O)C1C=CC2C(=O)N(C)C(=O)C2N1Nc1ccc([N+](=O)[O-])cc1[N+](=O)[O-] (centres undefined)")
-0.723
>>> result_value("COc1ccc([Si](C)(C)[C@@H]2[C@@H](CCO)O[C@]3(C(=O)N(Cc4ccccc4)c4ccc(N5C(=O)COc6ccccc65)cc43)[C@H]2C)cc1")
-0.237
>>> result_value("COc1cc2c(cc1OC)CN(C(=O)[C@@H]1[C@H]3C(=O)O[C@H](c4ccccc4)[C@H](c4ccccc4)N3[C@H](c3ccc(O)cc3)[C@@]13C(=O)Nc1ccc(C#CCNC(N)=O)cc13)CC2")
0.498
>>> result_value("CC(C)NC(=O)[C@@]1(Cc2ccccc2I)c2ccccc2C(=O)N(Cc2ccccc2C(F)(F)F)[C@H]1c1ccc(CO)cc1")
0.107
>>> result_value("COC(=O)[C@@]1(Cc2ccccc2N=[N+]=[N-])N=C(c2ccc(OCCCO)cc2)O[C@H]1c1ccccc1")
-0.608
>>> result_value("COCCOC(=O)N1C(=O)[C@@]2(c3cc(C#CCNC(N)=O)ccc31)[C@H](C(N)=O)[C@H]1C(=O)O[C@H](c3ccccc3)[C@H](c3ccccc3)N1[C@@H]2c1ccc(OCCO)cc1")
1.03
>>> result_value("C[C@H]1ON(c2ccccc2)[C@@H](c2ccccc2)[C@@H]1C(=O)N1C(=O)OC[C@@H]1c1ccccc1")
0.424
>>> result_value("CCCCC(=C=CC[C@H](O)c1ccccc1OCCO)C[C@H](O)c1ccccn1")
0.547
>>> result_value("CCOC(=O)C[C@H]1[C@H](OC(=O)c2ccccc2-c2ccccc2)[C@@H](NC(=O)c2ccccc2)c2cc(OCCCO)ccc2N1C(=O)Cc1ccc(OC)cc1")
0.0666
>>> result_value("CC(C)C[C@@H]1NC(=O)[C@@H]2C[C@H](C(=O)NCCCC[N+](C)(C)C)[C@H](c3cccc(OCCO)c3)N2C1=O")
1.44
>>> result_value("CCN(CC)c1ccc(N2CC=CC34O[C@@H]5/C=C\\CCCOC(=O)C5[C@H]3C(=O)N(CCCCCCO)[C@@H]4C2=O)cc1 (some centres undefined)")
-2.28
>>> result_value("CCCCC(CC)C(O)C1C=CC2C(=O)NC(=O)C2N1Nc1ccccn1 (centres undefined)")
-0.105

---

# Assay Notes: binders of probe aHhip on microarray, primary screen, stem cell growth factor project, biochemical, small-molecule microarray, fluorescence 635/667 (AID 1087);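 further: score merges spot fluorescence at 667nm with spot signal to noise ratio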
# Assay Conditions: higher = more signal
Label criterion met when composite z-score >= -0.06; otherwise criterion not met.

>>> label_class("CCCN1C(=O)[C@@]2(Cc3ccccc3)N=C(c3ccc(OCCCO)cc3)O[C@H]2c2ccccc21")
"criterion met"
>>> label_class("CC(C)N1CC=CC23O[C@@H]4C=CCOC(=O)[C@@H]4[C@H]2C(=O)N(CCCCCCO)[C@@H]3C1=O (some centres not stated)")
"criterion not met"
>>> label_class("COCCOC(=O)N1C(=O)[C@@]2(c3cc(C#CC4(O)CCCCCC4)ccc31)[C@H](C(=O)NC[C@H](O)c1ccccc1)[C@H]1C(=O)O[C@H](c3ccccc3)[C@H](c3ccccc3)N1[C@@H]2c1ccc(OCCO)cc1")
"criterion not met"
>>> label_class("CCCC[C@@H](O)C1=C(COc2ccccc2)Cn2c(=O)n(-c3ccccc3)c(=O)n2[C@H]1CO")
"criterion met"
>>> label_class("CC(C)(C)OC(=O)CC[C@@]1(C(=O)N2CCCCC2)N=C(c2ccc(OCCCO)cc2)O[C@@H]1c1ccccc1CN=[N+]=[N-]")
"criterion met"
>>> label_class("CCOC(=O)C[C@H]1[C@H](OC(=O)c2cc3ccccc3oc2=O)[C@@H](NC(=O)c2ccc3ccccc3n2)c2cc(OCCCO)ccc2N1C(=O)c1ccc2ccccc2n1")
"criterion met"
>>> label_class("COC(=O)[C@@]1(Cc2ccc(OC)cc2)[C@H]2c3cc(C(=O)N(C)C)n(Cc4cc(C)n(C)n4)c3C[C@H]2CN1C(=O)c1ccccc1")
"criterion met"
>>> label_class("COCCOC(=O)N1C(=O)[C@@]2(c3cc(C#Cc4ccc(OC)cc4)ccc31)[C@H](C(=O)N1CCc3cc(OC)c(OC)cc3C1)[C@H]1C(=O)O[C@H](c3ccccc3)[C@H](c3ccccc3)N1[C@@H]2c1ccc(OCCO)cc1")
"criterion met"
>>> label_class("C=CCC(OC(C)=O)[C@@H]1[C@@H](N(Cc2ccc(-c3ccccc3)cc2)C(=O)c2cccc3ccccc23)c2cc(OCCCO)ccc2N1C(=O)c1ccc2ccccc2n1 (some centres not stated)")
"criterion met"
>>> label_class("CC(C)CCC[C@@H](C)[C@H]1CC[C@@]2(C)C3=C(CC[C@]12C)[C@@]1(C)CC[C@H](OC(=O)c2ccc(N)cc2)C(C)(C)C1CC3 (some centres not stated)")
"criterion not met"
>>> label_class("C=CC[C@@]1(C(=O)NCCN2CCOCC2)N=C(c2ccc(OCCCO)cc2)O[C@@H]1c1ccccc1")
"criterion met"
>>> label_class("COCCCNC(=O)[C@@]1(Cc2ccccc2N=[N+]=[N-])N=C(c2ccc(OCCCO)cc2)O[C@H]1c1ccccc1CN=[N+]=[N-]")
"criterion not met"
